// provenance: PubChem BioAssay

PROTOCOL_SUMMARY: Her2 expression decrease, cell viability multiplex – SKBR3 breast tumor cells, AlphaScreen, ATP viability, primary screen (AID 461);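 further: percent of carrier control wells set as 100% viability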
EXPERIMENTAL_SETUP: SKBR3 Her2 protein level, 18-24 h, measured here: SKBR3 viability, ATP luminescence, at 10 µM
READOUT_TYPE: viability (%)
Hi! Could you send only the number? It should be in %, unit omitted.

q: Give reported viability value for CCOC(=O)c1ccc(NC(=O)Cn2cc3c(n2)CCC(C)C3)cc1 (stereo unspecified)
a: 91.5

q: Supply recorded viability for CCOC(=O)N1CCC(NC(=O)c2cc3c(=O)n(C)c4ccccc4c3n2C)CC1 here.
a: 88

q: Given the compound COc1cc(C2N3CC4(C)CN2CC(C)(C3)C4)ccc1O (stereo unspecified) , write its reported viability.
a: 94

q: Give me measured viability, please, for this compound: COc1ccc(N(CC(=O)Nc2cc(C)ccc2C)S(=O)(=O)c2c(C)nn(C)c2C)cc1
a: 92

q: Using known records, supply viability for Cn1c(=O)oc2cc(S(=O)(=O)NC3CCN(Cc4ccccc4)CC3)ccc21
a: 103

q: Write down viability measured for item Cc1c(C#N)c2ncnc(-c3ccccc3)c2n1-c1ccccc1
a: 106

q: Give the measured viability for CCOC(=O)c1cc2c(=O)n3ccccc3nc2n(CC(C)C)c1=NC(=O)c1ccco1
a: 84.5

q: Note down viability recorded for COc1cc2c(cc1OC)C(c1ccc(C)o1)CC(=O)N2 (stereo unspecified)
a: 81.5

q: Give the reported viability for this compound. COC(=O)c1ccc(NC(=O)CN2CCCC2)cc1
a: 107

q: Kindly indicate its recorded viability. Item: CCCCN=CC1=C(O)C(C(=O)OC)C(C)(C)CC1=O (stereo unspecified)
a: 79

q: Query viability for O=C(c1ccc(Cl)s1)N1CCN(c2nc3ccccc3s2)CC1
a: 84

---

For each record, write down the corresponding viability.
PROTOCOL_SUMMARY: reduced viability of SK-BR-3 breast cancer cells – cell-based, 24 h, human, pilot screen (AID 572);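 further: compound exposure lasted between 18 and 24 h rather than exactly 24 h; 100% = carrier-treated control wells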
EXPERIMENTAL_SETUP: SK-BR-3 viability, CellTiter-Glo luminescence, at 10 µM, stronger effect = lower value
Only the number, expressed in %, is required.

q: Return viability for the following compound: CC1CCCC(N2CCN(C(=O)c3ccc(F)cc3)CC2)C1 (configuration not stated)
a: 95

q: Read off the recorded viability for O=C(Nc1nncs1)c1ccccc1NS(=O)(=O)c1cccs1
a: 99

q: Annotate the compound COc1cc2c(cc1OC)-c1nnc(C)n1C1(CCCC1)C2 with its measured viability.
a: 87

q: Given Cc1cc(C)cc(NC(=O)CSc2nnc(Cc3cccn3C)n2-c2ccc(F)cc2)c1 , respond with its viability.
a: 87

q: # return recorded viability for entry CC(=O)N(C(C)=O)c1ncc2c([nH]c3ccccc32)c1C#N
a: 106

q: Fill in viability for record c1ccc2c(c1)nc(NC1CCCCC1)c1nncn12
a: 98.5

q: State its viability for this compound: COc1ccc(N2CCN(C(c3ccccc3)c3sc4nc(C)nn4c3O)CC2)cc1 (configuration not stated)
a: 91.5

q: Respond only with viability recorded for Nc1cccc2c1C(=O)N(c1ccccc1)C2=O
a: 95

q: Specify measured viability for COC(=O)C(C)Sc1nc2c(c(=O)n1-c1ccccc1)SCC2 (configuration not stated) .
a: 102

q: Let me know recorded viability for Cc1cc(C)n2c(SCCN3C(=O)c4ccccc4C3=O)nnc2n1 , thanks.
a: 90.5

q: Give viability for Cc1ccc(-c2oc3ccccc3c(=O)c2O)cc1
a: 78.5

q: Quick one: give measured viability for Cc1csc(NC(=O)C(Cc2ccccc2)n2cccc2)n1 (configuration not stated)
a: 91.5

q: Read off the recorded viability for CCC(C)OC(=O)C1=C(C)NC2=C(C(=O)C(C(=O)OC)C(C)C2)C1c1ccc(N(C)C)cc1 (configuration not stated)
a: 94.5

q: Tell me its viability given Cc1nnc(NC(=O)CSc2nc3c(c(=O)n2C)SC(C)C3)s1 (configuration not stated) as the entry.
a: 89

q: Fill in reported viability for this entry: Cc1ccc(OCC(O)CN2C(=O)NC(C)(C)C2=O)cc1C (configuration not stated)
a: 105

q: Quickly give me recorded viability for COc1ccc(C(=O)NCc2nc3ccccc3[nH]2)cc1OC
a: 110

q: Fill in reported viability for this entry: COc1ccc(-c2nc(CSCC(=O)N3CCN(c4cccc(C)c4)C(C)C3)c(C)o2)cc1OC (configuration not stated)
a: 102

q: Quick one: give measured viability for CCOC(=O)C1=C(C)Nc2nnnn2C1c1ccc(OC)c(Br)c1 (configuration not stated)
a: 106

q: Please supply the value of reported viability for the item O=C(c1cnccn1)N(c1ccccc1)C1(C(=O)NC2CCCC2)CCCCC1
a: 118

q: Supply viability value. Item: COc1ccc(NS(=O)(=O)c2ccc(NC(C)=O)cc2)cc1OC
a: 98.5

q: Output viability of CC(=O)C1=C(N2CCCCC2)CCC1=O
a: 86

q: Give the reported viability for this compound. CCOC(=O)N1CCC(NC(=O)c2cc(C(=O)NC3CCCC3)ccc2CO)CC1
a: 97.5
